- Study target: human 5HT1A receptor (Homo sapiens, UniProt P08908)
- Sequence (P08908 whole entry): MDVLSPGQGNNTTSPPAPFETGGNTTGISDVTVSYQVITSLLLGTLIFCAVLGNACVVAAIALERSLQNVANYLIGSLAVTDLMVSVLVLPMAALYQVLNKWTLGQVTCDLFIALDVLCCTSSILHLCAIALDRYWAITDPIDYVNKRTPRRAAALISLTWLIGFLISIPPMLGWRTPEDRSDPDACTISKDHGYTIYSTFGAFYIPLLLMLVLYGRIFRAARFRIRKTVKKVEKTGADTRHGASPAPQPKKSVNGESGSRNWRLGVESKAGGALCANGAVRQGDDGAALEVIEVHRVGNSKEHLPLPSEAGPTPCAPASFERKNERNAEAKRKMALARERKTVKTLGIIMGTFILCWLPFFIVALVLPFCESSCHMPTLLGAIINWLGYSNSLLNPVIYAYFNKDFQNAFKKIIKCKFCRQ
- Procedure details: displacement of [^3 H] 8-OH-DPAT binding in CHO cells stably transfected with human 5HT1A receptor
- Experimental context: final ligand concentration 1.5 nM, 30 minute incubation at room temperature

>  <Record smiles>
COc1ccccc1C1CCN(Cc2oc(C3CCCCC3)nc2Cc2ccccc2)CC1

>  <Value unit>
nM

>  <Ki>
4.4

$$$$

Source: patent US6057340A
